B1: C229A, Q93D82 (parent)
chain: MSTAIVTNVKHFGGMGSALRLSEAGHTVACHDESFKQKDELEAFAETYPQLKPMSEQEPAELIEAVTSAYGQVDVLVSNDIFAPEFQPIDKYAVEDYRGAVEALQIRPFALVNAVASQMKKRKSGHIIFITSATPFGPWKELSTYTSARAGACTLANALSKELGEYNIPVFAIGPNYLHSEDSPYFYPTEPWKTNPEHVAHVKKVTALQRLGTQKELGELVAFLASGSCDYLTGQVFWLAGGFPMIERWPGMPE

# Variants of: B1
# conditionParameters: Rhizobium radiobacter; pH 7.7; Thermal; CD; Phosphate 5mM; structure 1PWX; whole UniProt chain shown
variants and their reported Tm
property: Tm (°C)

> print(dat)
    mutationlist  unitslabel  assayvalue
 1         C229A          °C        60.5
 2          A93T          °C        69.5
 3          A69M          °C        62.5
 4           T7M          °C          65
 5         S228K          °C        64.5
 6         V199K          °C        66.5
 7          S68Q          °C          63
 8         T154V          °C          62
 9          A45K          °C        65.5
10          E64Q          °C          66
11          S68N          °C        65.5
12          R98I          °C        64.5
13          A29L          °C          68
14          S17A          °C          65
15         E247Y          °C          63
16          E56A          °C          65
17         P253S          °C        62.5
18          T47A          °C          63
19         H126V          °C        64.5
20          V77I          °C          64
21         S228R          °C        64.5
22         N195H          °C        64.5
23          G99H          °C          65
24         S117A          °C        63.5
25         C153I          °C          60
26         T134W          °C          64
27         A200Y          °C        62.5
28         S117K          °C          65
29          E64A          °C          66
30         D182F          °C          63
31          T47H          °C        63.5
32          V94L          °C        63.5
33          H26M          °C        64.5
34         A103Q          °C          61
35         E141Q          °C          56
36         V236I          °C        66.5
37         N113H          °C          63
38          K91Q          °C          61
39         N157W          °C          56
40         C153N          °C        78.5
41          D39E          °C          65
42          E85Y          °C        64.5
43         C153L          °C          63
44         E165A          °C        65.5
45          A60K          °C          61
46          A45L          °C          64
